Values were extracted from ChEMBL document CHEMBL1142318.

Field: pKi. Provide a value for each of the compounds that follow.
target system: 5'-methylthioadenosine/S-adenosylhomocysteine nucleosidase (Escherichia coli O157:H7, UniProt P0AF14)
Sequence (P0AF14 whole entry): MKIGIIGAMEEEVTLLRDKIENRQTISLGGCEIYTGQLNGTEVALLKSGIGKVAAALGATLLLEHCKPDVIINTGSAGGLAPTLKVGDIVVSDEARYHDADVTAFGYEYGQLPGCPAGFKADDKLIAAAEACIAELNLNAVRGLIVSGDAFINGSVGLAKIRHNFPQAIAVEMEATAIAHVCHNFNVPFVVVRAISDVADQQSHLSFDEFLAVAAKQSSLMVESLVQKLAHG
Just so you know, pKi here is -log10 of the concentration in molar units; reply with that number alone.

Can you share its pKi? I mean this compound: `CSCC1(CO)CN(Cc2c[nH]c3c(N)ncnc23)C1` 9.08

Next compound up: `CSC[C@H]1CN(Cc2c[nH]c3c(N)ncnc23)C[C@@H]1O` 11.70

Next compound up: `CSCC1CN(Cc2c[nH]c3c(N)ncnc23)C1` 9.35

###

target system: 5'-methylthioadenosine/S-adenosylhomocysteine nucleosidase (Streptococcus pneumoniae serotype 4 (strain ATCC BAA-334 / TIGR4), UniProt A0A0H2UPP7)
Sequence (A0A0H2UPP7 whole entry): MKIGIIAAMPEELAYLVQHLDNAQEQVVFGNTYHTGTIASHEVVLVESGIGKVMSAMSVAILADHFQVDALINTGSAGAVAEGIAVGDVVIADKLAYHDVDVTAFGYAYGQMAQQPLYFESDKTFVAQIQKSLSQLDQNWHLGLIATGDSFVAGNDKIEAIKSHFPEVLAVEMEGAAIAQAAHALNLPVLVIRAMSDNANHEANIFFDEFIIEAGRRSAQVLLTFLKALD
protocol summary: Inhibition of Streptococcus pneumoniae MTAN
Field: Ki. Provide a value for each of the compounds that follow.
Value expressed in nM; do not type the unit.

Can you share its Ki? I mean this compound: `CSCC1(CO)CN(Cc2c[nH]c3c(N)ncnc23)C1` 150

Next compound up: `CSCC1CN(Cc2c[nH]c3c(N)ncnc23)C1` 84

Next compound up: `CSC[C@H]1CN(Cc2c[nH]c3c(N)ncnc23)C[C@@H]1O` 24
